system: SW-620 colon; test: NCI tumour cell line growth inhibition, 48 h
recorded.metric: TGI

Here's what some known entries look like.
> print(dat)
                                   compound  recorded.metric  reported.result
1                   Cc1nnc(Nc2ccc(Cl)cc2)o1              TGI          > 10 µM
2  CN1C(=O)n2c(nc3ccccc32)C(N=[N+]=[N-])(N=[N+]=[N-])C1=O (stereo not given)              TGI         > 100 µM
3            Cc1[nH]c2c(C)ccc(C)c2c1CC(=O)O              TGI         > 100 µM

Bench note: what TGI did COc1ccc(C(=O)/C=C/c2cc3ccccc3[nH]c2=O)cc1 show?
33.2 µM

What do we get for C[C@H]1CCC/C=C/[C@@H]2C[C@H](O)C[C@H]2[C@H](O)[C@H](S(=O)c2ccc(O)cc2)CC(=O)O1 (stereo not given in full) ?
> 100 µM

What do we get for c1ccc(COCC23CCN(Cc4ccccc4)C(CC(OCc4ccccc4)C2)S3)cc1 (stereo not given) ?
> 100 µM

What do we get for O=C1c2ccccc2C(=O)c2c(OCC3CO3)ccc(OCC3CO3)c21 (stereo not given) ?
5.68 µM

What do we get for CS(=O)(=O)CCNCc1ccc(-c2ccc3ncnc(Nc4ccc(OCc5ccccc5)c(C(F)(F)F)c4)c3c2)o1 ?
8.66 µM

What do we get for COc1ccc(NC(=O)C(=O)C(CC2C(=O)NC(=S)NC2=O)C(=O)c2ccc3ccccc3c2)c([N+](=O)[O-])c1 (stereo not given) ?
> 100 µM

What do we get for CCOC(=O)C(NNS(=O)(=O)c1ccc(C)cc1)S(=O)(=O)C(F)(F)C(F)(F)C(F)(F)C(F)(F)F (stereo not given) ?
> 100 µM
